These measurements were taken from patent US11952330B2.

Test system: A. baumannii
Experiment: MIC by broth dilution, A. baumannii
Type: cell-based
Conditions: Acinetobacter baumannii; Mueller-Hinton broth, overnight 37° C.; Table 1; read-out: MIC (μg/mL) A. baumannii
Would you kindly list MIC for each of these molecules?

Look up and report measured MIC for this entry: CCCCCCCCOc1ccccc1C(=O)Nc1ccc(C(=O)OCC[N+](C)(CC)CC)cc1.[Br-] [Compound 10, reference compound]
3 to 30 µg/mL

Look up and report measured MIC for this entry: CCCCCCCOc1ccccc1C(=O)Nc1ccc(C(=O)NC2CC[N+](CC)(CCC)CC2)cc1.[Br-] (stereo not drawn)
> 30 µg/mL

Write down MIC measured for item CCCCCCCCOc1ccccc1C(=O)Nc1ccc(C(=O)OCC[N+](C)(CC)CC)c(F)c1.[Br-]
3 to 30 µg/mL

Look up and state reported MIC for CCCCCCCCOc1ccc(OCCCCCCCC)c(C(=O)Nc2ccc(C(=O)OCC[N+](C)(CC)CC)cc2)c1.[Br-]
> 30 µg/mL

Look up and state reported MIC for CCCCCCCCOc1ccccc1C(=O)Nc1ccc(C(=O)OCC[N+](CC)(CC)Cc2ccc(C(F)(F)F)cc2)cc1.[Br-]
> 30 µg/mL

Give me measured MIC, please, for this molecule: CCCCCOc1ccccc1C(=O)Nc1ccc(C(=O)OCC[N+](CC)(CC)CCCCC)cc1.[Br-]
> 30 µg/mL

Provide measured MIC value, entry: CCCCCCCCOc1ccccc1C(=O)Nc1ccc(C(=O)NC2CC[N+](C)(CCC)CC2)cc1.[Br-] (stereo not drawn)
> 30 µg/mL

State, in one line, measured MIC of CCCCCCCOc1ccccc1C(=O)Nc1ccc(C(=O)OCC[N+](CC)(CC)CCCCC)cc1.[Br-]
3 to 30 µg/mL

Return MIC (reported value) for this molecule: CCCCCCCCCCCCCCOc1ccccc1C(=O)Nc1ccc(C(=O)OCC[N+](C)(CC)CC)cc1.[Br-]
> 30 µg/mL

Determine from records and report MIC for CCCCCCCOc1ccccc1C(=O)Nc1ccc(C(=O)NCC[N+](C)(CC)CC)cc1.[Br-]
> 30 µg/mL

Identify measured MIC corresponding to CCCCCCCCOc1ccccc1C(=O)Nc1ccc(C(=O)OCC[N+]2(C)CCCC2)cc1.[Br-]
> 30 µg/mL

Note MIC for the molecule shown: CCCCCCCCOc1ccccc1C(=O)Nc1ccc(C(=O)OCC[N+](CC)(CC)Cc2cccc(F)c2F)cc1.[Br-]
3 to 30 µg/mL

Output measured MIC for this item: CCCCCCCCOc1ccccc1C(=O)Nc1ccc(C(=O)N(C)CC[N+](C)(CC)CC)cc1.[Br-]
> 30 µg/mL

// Input: CCCCCCCCOc1ccccc1C(=O)Nc1ccc(C(=O)OCC[N+](CC)(CC)CC)cc1.[Br-] . Output its MIC only.
> 30 µg/mL

Specify MIC for CCCCCCCCCCOc1ccccc1C(=O)Nc1ccc(C(=O)OCC[N+](C)(CC)CC)cc1.[Br-] and stop.
> 30 µg/mL

---

Test system: A. baumannii
Experiment: MIC by broth dilution, A. baumannii
Assay type: cell-based
Details: Acinetobacter baumannii; Mueller-Hinton broth, overnight 37° C.; Table 1; read-out: MIC (μg/mL) A. baumannii
Give measured MIC for each item. Keep answers brief.

Please indicate MIC recorded for CCCCCCCCOc1ccccc1C(=O)Nc1ccc(C(=O)OCC[N+](C)(CC)CC)cc1F.[Br-]
> 30 µg/mL

// fetch MIC given entry CCCCCCOc1cc(F)ccc1C(=O)Nc1ccc(S(=O)(=O)NCC[N+](CC)(CC)CCCCC)cc1.[Br-]
3 to 30 µg/mL

Hello, please tell me recorded MIC for this one: CCCCCCCOc1ccccc1C(=O)Nc1ccc(C(=O)OCC[N+](C)(CC)CC)cc1.[Br-]
> 30 µg/mL

Please supply the value of reported MIC for the item CCCCCCCCOc1cc(OCCCCCCCC)cc(C(=O)Nc2ccc(C(=O)OCC[N+](C)(CC)CC)cc2)c1.[Br-]
> 30 µg/mL

Annotate the molecule CCCCCCCCOc1ccccc1C(=O)Nc1ccc(C(=O)OC2CC[N+](C)(CC)CC2)cc1.[Br-] (stereo not drawn) with its measured MIC.
> 30 µg/mL

Tell me its MIC given CC[N+](C)(CC)CCOC(=O)c1ccc(NC(=O)c2ccccc2OCCCCC(C)C)cc1.[Br-] as the entry.
> 30 µg/mL

Give reported MIC value for CCCCCCCCOc1ccccc1C(=O)Nc1ccc(C(=O)OCC[N+](CC)(CC)CCC(C)(C)C)cc1.[Br-]
3 to 30 µg/mL

Quick one: give measured MIC for CCCCCCCCOc1ccccc1C(=O)Nc1ccc(C(=O)NC2CC[N+](CCC)(CCC)CC2)cc1.[Br-]
> 30 µg/mL

Quickly give me recorded MIC for CCCCCCCCOc1ccccc1C(=O)Nc1ccc(C(=O)OCC[N+](CC)(CC)CCCCc2ccccc2)cc1.[Br-]
3 to 30 µg/mL

Quick one: give measured MIC for CCCCCCOc1ccccc1C(=O)Nc1ccc(C(=O)OCC[N+](C)(CC)CC)cc1.[Br-]
> 30 µg/mL

Supply MIC value. Item: CCCCCCCCOc1cccc(C(=O)Nc2ccc(C(=O)OCC[N+](C)(CC)CC)cc2)c1OCCCCCCCC.[Br-]
> 30 µg/mL

Given CCCCCCCCOc1ccccc1C(=O)Nc1ccc(C(=O)OCC[N+](CC)(CC)CCC(C)C)cc1.[Br-] , respond with its MIC.
3 to 30 µg/mL

---

Tested on: A. baumannii
Assay: MIC by broth dilution, A. baumannii
Assay type: cell-based
Details: Acinetobacter baumannii; Mueller-Hinton broth, overnight 37° C.; Table 1; read-out: MIC (μg/mL) A. baumannii
Exercise: state measured MIC for each of the compounds provided.

Read the entry CCCCCCCOc1ccccc1C(=O)Nc1ccc(C(=O)NC2CC[N+](C)(CCC)CC2)cc1.[Br-] (stereo not shown) and write its reported MIC.
> 30 µg/mL

Let me know recorded MIC for CCCCCCCCOc1ccccc1C(=O)Nc1ccc(C(=O)OCC[N+](CC)(CC)Cc2ccc(C(=O)OC)cc2)cc1.[Br-] , thanks.
> 30 µg/mL

Name the recorded MIC of the item CCCCCCCCOc1ccccc1C(=O)Nc1ccc(C(=O)OCC[N+](CC)(CC)CC2CCCCC2)cc1.[Br-] in your answer.
3 to 30 µg/mL

For the compound CCCC(CCC)Oc1ccccc1C(=O)Nc1ccc(C(=O)OCC[N+](C)(CC)CC)cc1.[Br-] , give its measured MIC value.
> 30 µg/mL

Input CCCCCCCCCC[N+](CC)(CC)CCOC(=O)c1ccc(NC(=O)c2ccccc2OCCCCCCCC)cc1.[Br-] , output reported MIC.
> 30 µg/mL

Read the entry CCCCCCCCOc1ccccc1C(=O)Nc1ccc(C(=O)OCC[N+](CC)(CC)CC2CCCC2)cc1.[Br-] and write its reported MIC.
3 to 30 µg/mL

Please report the measured MIC for CCCCCCCCC[N+](CC)(CC)CCOC(=O)c1ccc(NC(=O)c2ccccc2OCCCCCCCC)cc1.[Br-]
> 30 µg/mL

---

For each record, write down the corresponding MIC.
System: S. aureus
Experiment: MIC by broth dilution, S. aureus
Type: cell-based
Conditions: Staphylococcus aureus; Mueller-Hinton broth, overnight 37° C.; Table 1; read-out: MIC (μg/mL) S. aureus

Could you please provide reported MIC for CCCCCCCCOc1ccccc1C(=O)Nc1ccc(C(=O)OCC[N+](CC)(CC)Cc2ccc(C(F)(F)F)cc2)cc1.[Br-] ? Thanks!
< 3 µg/mL

Report MIC for CCCCCCCCOc1ccccc1C(=O)Nc1ccc(C(=O)OCC[N+](CC)(CC)CC2CCCCC2)cc1.[Br-]
< 3 µg/mL

Tell me its MIC given CCCCCCCOc1ccccc1C(=O)Nc1ccc(S(=O)(=O)NCC[N+](CC)(CC)CCC)cc1.[Br-] as the entry.
3 to 30 µg/mL

Tell me MIC reported for CCCCCCCCOc1ccccc1C(=O)Nc1ccc(C(=O)OCC[N+](C)(CC)CC)c(F)c1.[Br-]
3 to 30 µg/mL

Respond only with MIC recorded for CCCCCCCCOc1ccccc1C(=O)Nc1ccc(C(=O)OCC[N+](CC)(CC)CCCCC)cc1.[Br-]
< 3 µg/mL

Tell us which MIC value is on record for CCCCCCCCOc1cc(F)ccc1C(=O)Nc1ccc(C(=O)OCC[N+](C)(CC)CC)cc1.[Br-]
3 to 30 µg/mL

Complete the entry with MIC for CCCCOc1ccccc1C(=O)Nc1ccc(C(=O)OCC[N+](C)(CC)CC)cc1.[Br-]
> 30 µg/mL

Determine its reported MIC: CCCCCCCCOc1ccccc1C(=O)Nc1ccc(C(=O)N(C)CC[N+](C)(CC)CC)cc1.[Br-]
> 30 µg/mL

For the molecule CCCCCCCCOc1ccccc1C(=O)Nc1ccc(C(=O)OCC[N+](C)(CC)CC)cc1.[Br-] [Compound 10, reference compound] , report MIC.
3 to 30 µg/mL

Hello, please tell me recorded MIC for this one: CCCCCCCCOc1ccccc1C(=O)Nc1ccc(C(=O)OCC[N+](CC)(CC)CCCC)cc1.[Br-]
< 3 µg/mL

Tell me MIC reported for CCCCCCCCOc1ccccc1C(=O)Nc1ccc(C(=O)OCC[N+]2(CCC)CCCC2)cc1.[Br-]
< 3 µg/mL

Please indicate MIC recorded for CCCCCCCCCCCCCCOc1ccccc1C(=O)Nc1ccc(C(=O)OCC[N+](C)(CC)CC)cc1.[Br-]
3 to 30 µg/mL

Please list MIC recorded for the molecule CCCCCCCCOc1ccccc1C(=O)Nc1ccc(C(=O)OCC[N+]2(C)CCCC2)cc1.[Br-]
3 to 30 µg/mL

Return reported MIC. Input molecule: CCCCCCCCOc1ccccc1C(=O)Nc1ccc(C(=O)OC2CC[N+](CC)(CCC)CC2)cc1.[Br-] (stereo not drawn)
3 to 30 µg/mL

State its MIC for this molecule: CCCCCCCCOc1c(F)cccc1C(=O)Nc1ccc(C(=O)OCC[N+](C)(CC)CC)cc1.[Br-]
3 to 30 µg/mL
